The reported measurements were obtained from ChEMBL document CHEMBL1141678.

# studySystem: Cytochrome P450 1A2 (Homo sapiens, UniProt P05177)
# testMethodNotes: Inhibition of human recombinant CYP1A2
# runConditions: human, recombinant CYP1A2
If the reported log(1/IC50) equals or exceeds 2, assign true (1). If not, assign false (0).

Incoming: Quick check: does Cc1cc(/C=C/C(=O)/C=C/c2cc(C)c(O)c(C)c2)cc(C)c1O have log(1/IC50) greater than or equal to 2?
Outgoing: false (0)

Incoming: Quick check: does O=C1/C(=C/c2cccc(Cl)c2)CCC/C1=C\c1cccc(Cl)c1 have log(1/IC50) greater than or equal to 2?
Outgoing: true (1)

Incoming: Quick check: does CN(C)c1ccc(/C=C2\CCC/C(=C\c3ccc(N(C)C)cc3)C2=O)cc1 have log(1/IC50) greater than or equal to 2?
Outgoing: true (1)

Incoming: Quick check: does O=C(/C=C/c1ccc(C(F)(F)F)cc1)/C=C/c1ccc(C(F)(F)F)cc1 have log(1/IC50) greater than or equal to 2?
Outgoing: true (1)

----------
# studySystem: Cytochrome P450 1A2 (Homo sapiens, UniProt P05177)
# Sequence (P05177 whole entry): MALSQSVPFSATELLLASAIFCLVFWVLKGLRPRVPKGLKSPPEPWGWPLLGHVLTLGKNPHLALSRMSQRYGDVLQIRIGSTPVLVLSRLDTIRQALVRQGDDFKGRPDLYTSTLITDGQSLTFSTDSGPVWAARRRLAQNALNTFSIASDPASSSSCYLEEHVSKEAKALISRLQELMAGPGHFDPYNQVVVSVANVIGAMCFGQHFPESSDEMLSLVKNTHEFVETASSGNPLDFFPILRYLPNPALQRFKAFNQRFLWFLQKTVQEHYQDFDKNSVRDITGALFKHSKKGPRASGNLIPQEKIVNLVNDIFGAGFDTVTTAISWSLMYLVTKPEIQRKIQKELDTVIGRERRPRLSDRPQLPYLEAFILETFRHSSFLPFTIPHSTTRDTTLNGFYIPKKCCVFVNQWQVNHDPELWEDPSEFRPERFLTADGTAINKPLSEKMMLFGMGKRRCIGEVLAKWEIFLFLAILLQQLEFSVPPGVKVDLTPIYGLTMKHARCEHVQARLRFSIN
# testMethodNotes: Inhibition of human recombinant CYP1A2
Please go through the items and note down their IC50.

Incoming: Recorded IC50 for COc1cc(/C=C/C(=O)/C=C/c2cc(OC)c(O)c(OC)c2)cc(OC)c1O , please?
Outgoing: 75.2 µM

Incoming: Recorded IC50 for O=C(/C=C/c1ccc(C(F)(F)F)cc1)/C=C/c1ccc(C(F)(F)F)cc1 , please?
Outgoing: 4 µM

Incoming: Recorded IC50 for CC(C)(C)c1cc(/C=C2\CC/C(=C\c3cc(C(C)(C)C)c(O)c(C(C)(C)C)c3)C2=O)cc(C(C)(C)C)c1O , please?
Outgoing: 42.8 µM

Incoming: Recorded IC50 for COc1cc(/C=C/C(=O)CC(=O)/C=C/c2ccc(O)c(OC)c2)ccc1O [CURCUMIN] , please?
Outgoing: 40 µM

Incoming: Recorded IC50 for CCc1cc(/C=C2\CC/C(=C\c3cc(CC)c(O)c(CC)c3)C2=O)cc(CC)c1O , please?
Outgoing: 36.7 µM

Incoming: Recorded IC50 for O=C1/C(=C/c2ccc(O)cc2)CC/C1=C\c1ccc(O)cc1 , please?
Outgoing: 45.6 µM

Incoming: Recorded IC50 for CN(C)c1ccc(/C=C2\CCC/C(=C\c3ccc(N(C)C)cc3)C2=O)cc1 , please?
Outgoing: 2.6 µM

Incoming: Recorded IC50 for O=C1/C(=C/c2cccc(Cl)c2)CCC/C1=C\c1cccc(Cl)c1 , please?
Outgoing: 3.4 µM

Incoming: Recorded IC50 for CC(C)(C)c1ccc(/C=C/C(=O)/C=C/c2ccc(C(C)(C)C)cc2)cc1 , please?
Outgoing: 28 µM

Incoming: Recorded IC50 for COc1ccc(/C=C2\CCC/C(=C\c3ccc(OC)cc3)C2=O)cc1 , please?
Outgoing: 11 µM

Incoming: Recorded IC50 for O=C1/C(=C/c2ccccc2)CC/C1=C\c1ccccc1 , please?
Outgoing: 36.6 µM

Incoming: Recorded IC50 for Cc1ccc(/C=C2\CCC/C(=C\c3ccc(C)cc3)C2=O)cc1 , please?
Outgoing: 21 µM

Incoming: Recorded IC50 for O=C1/C(=C/c2ccc(C(F)(F)F)cc2)CCC/C1=C\c1ccc(C(F)(F)F)cc1 , please?
Outgoing: 10.4 µM

Incoming: Recorded IC50 for COc1cc(/C=C2\CC/C(=C\c3ccc(O)c(OC)c3)C2=O)ccc1O , please?
Outgoing: 38.9 µM

Incoming: Recorded IC50 for O=C(/C=C/c1cccc(Cl)c1)/C=C/c1cccc(Cl)c1 , please?
Outgoing: 3.4 µM

Incoming: Recorded IC50 for COc1cc(/C=C/C(=O)/C=C/c2ccc(O)c(OC)c2)ccc1O , please?
Outgoing: 41.5 µM

Incoming: Recorded IC50 for O=C(/C=C/c1ccc(Cl)cc1)/C=C/c1ccc(Cl)cc1 , please?
Outgoing: 26.6 µM

Incoming: Recorded IC50 for O=C1/C(=C/c2ccccc2)CCC/C1=C\c1ccccc1 [2,6-DIBENZYLIDENECYCLOHEXANONE] , please?
Outgoing: 0.9 µM

Incoming: Recorded IC50 for Cc1cc(/C=C/C(=O)/C=C/c2cc(C)c(O)c(C)c2)cc(C)c1O , please?
Outgoing: 30.4 µM

----------
# studySystem: UniProtKB P08684
# Sequence (P08684 whole entry): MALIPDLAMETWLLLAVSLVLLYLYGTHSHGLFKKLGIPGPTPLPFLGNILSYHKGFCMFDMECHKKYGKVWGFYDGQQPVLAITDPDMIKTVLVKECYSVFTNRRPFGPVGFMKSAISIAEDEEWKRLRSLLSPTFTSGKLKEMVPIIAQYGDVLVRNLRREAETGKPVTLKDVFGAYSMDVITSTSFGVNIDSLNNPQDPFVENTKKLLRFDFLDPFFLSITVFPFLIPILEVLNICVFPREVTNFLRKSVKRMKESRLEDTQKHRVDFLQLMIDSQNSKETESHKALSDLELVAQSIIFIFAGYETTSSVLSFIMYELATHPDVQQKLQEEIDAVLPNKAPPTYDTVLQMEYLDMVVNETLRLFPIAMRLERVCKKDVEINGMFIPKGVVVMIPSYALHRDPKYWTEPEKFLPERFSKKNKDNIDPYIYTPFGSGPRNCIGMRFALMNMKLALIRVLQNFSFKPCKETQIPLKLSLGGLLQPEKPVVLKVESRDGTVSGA
# testMethodNotes: Inhibition of human recombinant CYP3A4 in presence of reduced glutathione; note: test concentration or dose not given here
# Type: ADME
# runConditions: recombinant enzyme
measuredEndpoint: Activity

# count of solved cases: 5
{"entrySmiles": "O=C1/C(=C/c2cccc(Cl)c2)CC/C1=C\\c1cccc(Cl)c1", "Activity": "Not Active"}
{"entrySmiles": "O=C1/C(=C/c2ccc(Cl)cc2)CC/C1=C\\c1ccc(Cl)cc1", "Activity": "Not Active"}
{"entrySmiles": "O=C(/C=C/c1ccccc1)/C=C/c1ccccc1", "Activity": "Not Active"}
{"entrySmiles": "O=C1/C(=C/c2ccc(C(F)(F)F)cc2)CCC/C1=C\\c1ccc(C(F)(F)F)cc1", "Activity": "Not Active"}
{"entrySmiles": "Cc1cc(/C=C2\\CC/C(=C\\c3cc(C)c(O)c(C)c3)C2=O)cc(C)c1O", "Activity": "Not Active"}

Incoming: Recorded Activity for CCc1cc(/C=C2\CC/C(=C\c3cc(CC)c(O)c(CC)c3)C2=O)cc(CC)c1O , please?
Outgoing: Not Active

Incoming: Recorded Activity for COc1ccc(/C=C2\CC/C(=C\c3ccc(OC)cc3)C2=O)cc1 , please?
Outgoing: Not Active

Incoming: Recorded Activity for CC(C)(C)c1cc(/C=C2\CC/C(=C\c3cc(C(C)(C)C)c(O)c(C(C)(C)C)c3)C2=O)cc(C(C)(C)C)c1O , please?
Outgoing: Not Active

Incoming: Recorded Activity for O=C1/C(=C/c2ccc(O)cc2)CC/C1=C\c1ccc(O)cc1 , please?
Outgoing: Not Active

----------
# studySystem: Cytochrome P450 2C9 (Homo sapiens, UniProt P11712)
# Sequence (P11712 whole entry): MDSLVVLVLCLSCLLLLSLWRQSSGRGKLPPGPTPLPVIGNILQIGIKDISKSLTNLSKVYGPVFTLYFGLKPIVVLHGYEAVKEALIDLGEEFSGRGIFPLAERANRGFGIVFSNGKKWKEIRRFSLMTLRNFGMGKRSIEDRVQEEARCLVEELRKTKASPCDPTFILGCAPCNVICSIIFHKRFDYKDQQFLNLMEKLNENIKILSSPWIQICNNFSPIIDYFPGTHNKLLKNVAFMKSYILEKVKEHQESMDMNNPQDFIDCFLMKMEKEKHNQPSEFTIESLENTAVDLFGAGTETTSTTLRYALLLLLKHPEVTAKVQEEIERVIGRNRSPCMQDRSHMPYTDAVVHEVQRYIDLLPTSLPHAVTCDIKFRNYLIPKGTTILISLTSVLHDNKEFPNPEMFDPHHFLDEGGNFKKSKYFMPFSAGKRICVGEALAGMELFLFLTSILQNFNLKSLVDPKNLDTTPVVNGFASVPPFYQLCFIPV
# testMethodNotes: Inhibition of human recombinant CYP2C9
measuredEndpoint: IC50 (µM)
Provide the reading as a plain figure in µM.

Incoming: Recorded IC50 for CCc1cc(/C=C2\CC/C(=C\c3cc(CC)c(O)c(CC)c3)C2=O)cc(CC)c1O , please?
Outgoing: 37.7

Incoming: Recorded IC50 for COc1cc(/C=C/C(=O)/C=C/c2cc(OC)c(O)c(OC)c2)cc(OC)c1O , please?
Outgoing: 59

Incoming: Recorded IC50 for O=C(/C=C/c1ccccc1)/C=C/c1ccccc1 , please?
Outgoing: 67.3

----------
# studySystem: Cytochrome P450 1A2 (Homo sapiens, UniProt P05177)
# Sequence (P05177 whole entry): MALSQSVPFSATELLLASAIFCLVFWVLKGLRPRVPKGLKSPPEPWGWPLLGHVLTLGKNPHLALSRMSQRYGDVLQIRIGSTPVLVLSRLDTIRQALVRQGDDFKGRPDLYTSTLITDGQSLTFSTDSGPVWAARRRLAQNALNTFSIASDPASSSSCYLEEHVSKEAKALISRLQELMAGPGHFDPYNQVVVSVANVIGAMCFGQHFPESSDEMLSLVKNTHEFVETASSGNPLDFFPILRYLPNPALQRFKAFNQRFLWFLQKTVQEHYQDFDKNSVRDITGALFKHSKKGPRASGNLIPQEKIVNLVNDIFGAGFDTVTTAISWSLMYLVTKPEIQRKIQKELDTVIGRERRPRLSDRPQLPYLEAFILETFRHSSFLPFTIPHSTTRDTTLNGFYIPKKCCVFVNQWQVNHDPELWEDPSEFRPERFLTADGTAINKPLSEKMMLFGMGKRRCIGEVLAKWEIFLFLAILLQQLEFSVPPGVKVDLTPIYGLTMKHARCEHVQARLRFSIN
# testMethodNotes: Inhibition of human recombinant CYP1A2
# runConditions: human, recombinant CYP1A2
Please go through the items and note down their log(1/IC50).
Write the number on its own, no unit after it.

Incoming: Recorded log(1/IC50) for Cc1ccc(/C=C2\CCC/C(=C\c3ccc(C)cc3)C2=O)cc1 , please?
Outgoing: 1.678

Incoming: Recorded log(1/IC50) for CC(C)(C)c1cc(/C=C2\CC/C(=C\c3cc(C(C)(C)C)c(O)c(C(C)(C)C)c3)C2=O)cc(C(C)(C)C)c1O , please?
Outgoing: 1.369

Incoming: Recorded log(1/IC50) for O=C1/C(=C/c2ccc(O)cc2)CC/C1=C\c1ccc(O)cc1 , please?
Outgoing: 1.341
